Biological target: human TLR9 (Homo sapiens, UniProt Q9NR96)
Sequence (Q9NR96 26-1032): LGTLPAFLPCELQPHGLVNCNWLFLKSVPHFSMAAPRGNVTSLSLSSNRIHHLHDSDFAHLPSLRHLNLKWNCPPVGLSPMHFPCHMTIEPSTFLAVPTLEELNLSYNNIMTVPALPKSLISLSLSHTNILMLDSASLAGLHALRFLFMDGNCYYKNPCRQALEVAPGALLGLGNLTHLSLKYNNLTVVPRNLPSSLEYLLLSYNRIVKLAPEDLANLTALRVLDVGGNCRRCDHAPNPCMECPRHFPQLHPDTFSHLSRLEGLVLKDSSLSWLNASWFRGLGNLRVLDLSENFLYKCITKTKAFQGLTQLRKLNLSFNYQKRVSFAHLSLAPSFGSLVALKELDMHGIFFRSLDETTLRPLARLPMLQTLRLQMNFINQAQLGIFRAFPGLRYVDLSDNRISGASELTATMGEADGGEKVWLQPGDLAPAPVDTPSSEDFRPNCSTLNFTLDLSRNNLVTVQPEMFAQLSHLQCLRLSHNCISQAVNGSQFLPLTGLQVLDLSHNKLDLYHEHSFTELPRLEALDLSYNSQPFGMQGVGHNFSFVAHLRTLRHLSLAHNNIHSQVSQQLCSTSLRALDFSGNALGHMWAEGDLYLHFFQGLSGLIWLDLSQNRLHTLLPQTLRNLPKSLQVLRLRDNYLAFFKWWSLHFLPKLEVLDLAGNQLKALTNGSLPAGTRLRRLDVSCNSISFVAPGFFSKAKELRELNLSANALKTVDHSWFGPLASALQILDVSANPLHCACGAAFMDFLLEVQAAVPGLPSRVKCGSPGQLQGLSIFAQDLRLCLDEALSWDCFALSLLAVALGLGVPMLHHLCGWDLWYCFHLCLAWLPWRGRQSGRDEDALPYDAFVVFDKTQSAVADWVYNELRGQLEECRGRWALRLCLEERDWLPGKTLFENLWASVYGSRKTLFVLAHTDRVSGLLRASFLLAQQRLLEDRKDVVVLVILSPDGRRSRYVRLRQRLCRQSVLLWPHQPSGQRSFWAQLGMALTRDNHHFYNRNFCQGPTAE
Experiment: HEK293-Blue-hTLR-9 cells assay
Conditions: HEK293-Blue-hTLR9 cells, ODN2006 stimulation, 20 hrs, SEAP reporter; read-out: HEK/hTLR9 IC50
Experimental: HEK293-Blue-hTLR-9 Cells Assay: A stable HEK293-Blue-hTLR-9 cell line was purchased from InvivoGen (Cat. #: hkb-htlr9, San Diego. California USA). […] The cell culture supernatant SEAP reporter activity was determined using QUANTI-Blue™ kit (Cat. #: rep-qb1, Invivogen, San Diego, California, USA) at a wavelength of 640 nm, a detection medium that turns purple or blue in the presence of alkaline phosphatase. […]
The reader will find reported IC50 values listed item by item below.

Compound: C[C@@H]1CN(c2ccc(C#N)c3ncccc23)C[C@@H]2c3ccc(N4C[C@H](N)[C@@](C)(O)C4)cc3CN12 [Example 45B]
Study Target: human TLR9 (Homo sapiens, UniProt Q9NR96)
IC50: 74.1 nM
//
Compound: C[C@@H]1CN(c2ccc(Cl)c3ncccc23)C[C@@H]2c3ccc(N[C@H]4CNC[C@H]4F)cc3CN12 [Example 79]
Study Target: human TLR9 (Homo sapiens, UniProt Q9NR96)
IC50: 113 nM
//
Compound: C[C@@H]1CN(c2ccc(C#N)c3ncccc23)C[C@@H]2c3ccc(N4CCNC[C@@H](O)C4)cc3CN12 [Example 53B]
Study Target: human TLR9 (Homo sapiens, UniProt Q9NR96)
IC50: 68 nM
//
Compound: [2H]c1ccc2c(N3C[C@@H](C)N4Cc5cc(N[C@H]6CNC[C@H]6F)ccc5[C@H]4C3)ccc(C#N)c2n1 [Example 91]
Study Target: human TLR9 (Homo sapiens, UniProt Q9NR96)
IC50: 70.5 nM
//
Compound: C[C@@H]1CN(c2ccc(C#N)c3ncccc23)C[C@@H]2c3ccc(OC[C@@H]4C[C@H](F)CN4)cc3CN12 [Example 74]
Study Target: human TLR9 (Homo sapiens, UniProt Q9NR96)
IC50: 136 nM
//
Compound: C[C@@H]1CN(c2ccc(C#N)c3ncccc23)C[C@@H]2c3ccc(N4CCOC5CNCC54)cc3CN12 (stereo partly shown) [Example 52]
Study Target: human TLR9 (Homo sapiens, UniProt Q9NR96)
IC50: 195 nM
//
Compound: C[C@@H]1CN(c2ccc(C#N)c3ncccc23)C[C@@H]2c3ccc(NCC4(F)CNC4)cc3CN12 [Example 69]
Study Target: human TLR9 (Homo sapiens, UniProt Q9NR96)
IC50: 171 nM
